Provenance of the data: the Kinase Knowledgebase extract (Sharma et al. 2016)

Reported values of IC50 for individual entries
biological target: PIK3CA (human) (UniProt P42336)
Sequence (P42336 whole entry, looked up): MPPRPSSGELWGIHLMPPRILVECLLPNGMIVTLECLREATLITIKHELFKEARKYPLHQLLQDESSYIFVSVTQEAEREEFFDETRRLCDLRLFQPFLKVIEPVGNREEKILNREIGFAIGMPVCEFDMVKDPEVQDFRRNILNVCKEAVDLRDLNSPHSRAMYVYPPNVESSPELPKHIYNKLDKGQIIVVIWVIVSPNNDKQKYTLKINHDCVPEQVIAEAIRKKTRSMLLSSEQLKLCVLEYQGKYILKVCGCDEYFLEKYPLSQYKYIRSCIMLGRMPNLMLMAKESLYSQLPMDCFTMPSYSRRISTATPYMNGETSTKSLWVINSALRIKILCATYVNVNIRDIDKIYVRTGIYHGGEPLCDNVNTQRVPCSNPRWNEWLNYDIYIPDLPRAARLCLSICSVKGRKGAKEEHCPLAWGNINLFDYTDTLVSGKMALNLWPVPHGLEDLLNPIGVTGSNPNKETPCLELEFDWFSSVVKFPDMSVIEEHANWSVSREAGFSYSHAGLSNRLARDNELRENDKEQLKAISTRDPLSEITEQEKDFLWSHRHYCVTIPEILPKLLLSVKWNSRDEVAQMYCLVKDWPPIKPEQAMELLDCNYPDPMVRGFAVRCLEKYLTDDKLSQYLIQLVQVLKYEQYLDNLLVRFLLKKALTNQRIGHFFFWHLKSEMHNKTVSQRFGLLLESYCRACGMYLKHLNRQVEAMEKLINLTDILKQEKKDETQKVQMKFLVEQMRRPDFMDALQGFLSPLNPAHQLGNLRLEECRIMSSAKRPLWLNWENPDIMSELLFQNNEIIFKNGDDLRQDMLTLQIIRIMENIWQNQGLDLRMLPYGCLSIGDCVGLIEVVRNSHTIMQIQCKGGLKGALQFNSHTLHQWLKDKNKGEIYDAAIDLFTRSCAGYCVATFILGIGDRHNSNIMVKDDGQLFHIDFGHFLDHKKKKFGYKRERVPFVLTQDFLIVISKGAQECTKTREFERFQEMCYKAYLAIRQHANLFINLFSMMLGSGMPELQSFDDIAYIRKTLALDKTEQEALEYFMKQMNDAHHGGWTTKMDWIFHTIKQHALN

COc1cccc2c1nc(C(F)F)n2-c1nc(Nc2ccc(N)nc2)nc(N2CCOCC2)n1 = < 100 nM

# returns recorded IC50 (system: PIK3CA (human) (UniProt P42336)) for FC(F)c1nc2ccccc2n1-c1nc(Nc2cncnc2)nc(N2CCOCC2)n1 < 100 nM

====

Here's a batch of compounds along with measured IC50 for PIK3CD (Human).

Report IC50 for COc1cccc2c1nc(C(F)F)n2-c1nc(Nc2cnc(N(C)CCCN(C)C)nc2)nc(N2CCOCC2)n1 please. < 100 nM

# lookup: IC50 of COc1cccc2c1nc(C(F)F)n2-c1nc(Nc2ccc(F)nc2)nc(N2CCOCC2)n1 < 100 nM

What IC50 value was documented for this compound, FC(F)c1nc2ccccc2n1-c1nc(-c2cccnc2)nc(N2CCOCC2)n1 ? < 100 nM

====

As an illustration, consider measured IC50 for molecules on PIK3CA (human).

COc1cccc2c1nc(C(F)F)n2-c1nc(N2CCOCC2)c2ncn(-c3cncnc3)c2n1 = < 100 nM
FC(F)c1nc2ccccc2n1-c1nc(NCc2ccncc2)nc(N2CCOCC2)n1 = 100 to 1000 nM
FC(F)c1nc2ccccc2n1-c1nc(Sc2ccccc2)nc(N2CCOCC2)n1 = > 10000 nM
CN(c1cncnc1)c1nc(N2CCOCC2)nc(-n2c(C(F)F)nc3ccccc32)n1 = < 100 nM

Hi! What's the reported IC50 for Cn1cc(Nc2nc(N3CCOCC3)nc(-n3c(C(F)F)nc4ccccc43)n2)cn1 on PIK3CA (human)? < 100 nM

Give PIK3CA (human) IC50 for COc1ccc(Nc2nc(N3CCOCC3)nc(-n3c(C(F)F)nc4c(OC)cccc43)n2)nn1 < 100 nM

Form field - read-out: IC50; system: PIK3CA (human); submitted item: COc1cccc2c1nc(C(F)F)n2-c1nc(-c2cncnc2)cc(N2CCOCC2)n1 < 100 nM

Entry FC(F)c1nc2ccccc2n1-c1nc(Nc2ccncc2)nc(N2CCOCC2)n1 , system PIK3CA (human): what IC50 was measured? < 100 nM

Hello, I am looking for reported IC50 with PIK3CA (human) for FC(F)c1nc2ccccc2n1-c1nc(Nc2ccccn2)nc(N2CCOCC2)n1 . Could you help? < 100 nM

What reported IC50 corresponds to COc1ccc(Nc2nc(N3CCOCC3)nc(-n3c(C(F)F)nc4c(OC)cccc43)n2)cn1 on PIK3CA (human)? < 100 nM

====

Observed pIC50 for PIK3CB (Human), reported per entry below.
pIC50: −log10 of the molar value.

What measured pIC50 goes with COc1cccc2c1nc(C(F)F)n2-c1nc(Nc2ccc(Cl)nc2)nc(N2CCOCC2)n1 ? 6.00 to 7.00

Record request: pIC50 value, item COc1cccc2c1nc(C(F)F)n2-c1nc(Nc2cncnc2)nc(N2CCOCC2)n1 6.00 to 7.00

Can you look up the measured pIC50 of COc1cccc2c1nc(C(F)F)n2-c1nc(N2CCOCC2)nc(N(C)c2cccnc2)n1 for me? > 7.00

Data request, read-out pIC50, for CN(Cc1ccccc1)c1nc(N2CCOCC2)nc(-n2c(C(F)F)nc3ccccc32)n1 6.00 to 7.00

State the recorded pIC50 for this entry: CN(c1ccccc1)c1nc(N2CCOCC2)nc(-n2c(C(F)F)nc3ccccc32)n1 6.00 to 7.00

====

biological target: PIK3CB (Human); assay: Assessment of PIK3CB Kinase Activity
parameterMeasured: IC50

Sample answers from the record:
Cn1cc(Nc2nc(N3CCOCC3)nc(-n3c(C(F)F)nc4ccccc43)n2)cn1 = 100 to 1000 nM
COc1ccc(Nc2nc(N3CCOCC3)nc(-n3c(C(F)F)nc4c(OC)cccc43)n2)nn1 = 100 to 1000 nM

Alright, here's another molecule for you.
Request: IC50, test system PIK3CB (Human), entry FC(F)c1nc2ccccc2n1-c1nc(-c2cccnc2)nc(N2CCOCC2)n1 100 to 1000 nM

====

molecular target: PIK3CA (human)
IC50 reference

Worked cases, answers included:
COc1cccc2c1nc(C(F)F)n2-c1nc(Nc2ccc(F)nc2)nc(N2CCOCC2)n1 = < 100 nM
FC(F)c1nc2ccccc2n1-c1nc(Oc2ccccc2)nc(N2CCOCC2)n1 = > 10000 nM
FC(F)c1nc2ccccc2n1-c1nc(-c2cccnc2)nc(N2CCOCC2)n1 = < 100 nM
FC(F)c1nc2ccccc2n1-c1nc(Nc2ncccn2)nc(N2CCOCC2)n1 = 100 to 1000 nM
FC(F)c1nc2ccccc2n1-c1nc(Nc2ccccc2)nc(N2CCOCC2)n1 = 100 to 1000 nM

Lookup: IC50 / PIK3CA (human) / CNc1ccc(Nc2nc(N3CCOCC3)nc(-n3c(C(F)F)nc4c(OC)cccc43)n2)cn1 < 100 nM

Field: IC50 (PIK3CA (human)). Entry: FC(F)c1nc2ccccc2n1-c1nc(Nc2cnccn2)nc(N2CCOCC2)n1 < 100 nM

Enter reported IC50 observed with PIK3CA (human) for COc1cccc2c1nc(C(F)F)n2-c1nc(Nc2cnc(N(C)CCN(C)C)nc2)nc(N2CCOCC2)n1 < 100 nM

====

target: PIK3CB (Human) (UniProt P42338)
Sequence (P42338 whole entry, looked up): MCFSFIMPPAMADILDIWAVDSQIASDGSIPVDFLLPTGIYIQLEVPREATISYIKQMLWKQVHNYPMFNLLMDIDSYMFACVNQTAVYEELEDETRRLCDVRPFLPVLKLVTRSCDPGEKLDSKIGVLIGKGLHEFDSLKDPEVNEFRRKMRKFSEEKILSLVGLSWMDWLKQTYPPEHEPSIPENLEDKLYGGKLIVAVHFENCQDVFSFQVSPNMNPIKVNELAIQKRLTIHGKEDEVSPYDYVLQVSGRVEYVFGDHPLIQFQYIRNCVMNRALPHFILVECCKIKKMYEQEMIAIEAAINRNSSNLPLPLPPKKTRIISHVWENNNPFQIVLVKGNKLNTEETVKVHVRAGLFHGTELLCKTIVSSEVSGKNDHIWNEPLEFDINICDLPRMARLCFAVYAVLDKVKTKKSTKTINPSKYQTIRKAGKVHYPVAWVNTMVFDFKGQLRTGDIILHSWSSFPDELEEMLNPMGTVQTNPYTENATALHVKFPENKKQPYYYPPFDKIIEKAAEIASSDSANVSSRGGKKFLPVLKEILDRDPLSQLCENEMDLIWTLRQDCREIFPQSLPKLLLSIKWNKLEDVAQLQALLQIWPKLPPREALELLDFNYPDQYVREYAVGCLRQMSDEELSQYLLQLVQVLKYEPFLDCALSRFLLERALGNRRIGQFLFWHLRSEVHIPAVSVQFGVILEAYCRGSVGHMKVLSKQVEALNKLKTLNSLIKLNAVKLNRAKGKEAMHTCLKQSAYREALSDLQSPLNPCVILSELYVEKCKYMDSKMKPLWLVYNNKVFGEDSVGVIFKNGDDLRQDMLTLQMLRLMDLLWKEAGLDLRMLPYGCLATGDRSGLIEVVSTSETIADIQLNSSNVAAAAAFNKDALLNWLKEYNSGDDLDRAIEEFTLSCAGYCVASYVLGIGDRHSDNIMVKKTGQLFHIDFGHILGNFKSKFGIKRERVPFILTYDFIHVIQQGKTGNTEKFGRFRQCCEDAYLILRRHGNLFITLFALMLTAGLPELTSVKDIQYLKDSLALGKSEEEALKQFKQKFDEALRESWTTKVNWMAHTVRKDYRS
Listed compounds paired with reported IC50

COc1cccc2c1nc(C(F)F)n2-c1nc(Nc2ccc(N)nc2)nc(N2CCOCC2)n1 = 100 to 1000 nM
FC(F)c1nc2ccccc2n1-c1nc(Nc2cccnc2)nc(N2CCOCC2)n1 = < 100 nM
CNc1ccc(Nc2nc(N3CCOCC3)nc(-n3c(C(F)F)nc4c(OC)cccc43)n2)cn1 = 100 to 1000 nM

Continue with the compound presented below.
Which measured IC50 belongs to COc1cccc2c1nc(C(F)F)n2-c1nc(Nc2cccnn2)nc(N2CCOCC2)n1 , tested on PIK3CB (Human) (UniProt P42338)? 100 to 1000 nM
